Biological target: HIV-RT enzyme (HIV-1 reverse transcriptase) (Human immunodeficiency virus type 1 group M subtype B)
Construct: Reactions were initiated by the addition of 30 μl of the HIV-RT enzyme
Test: HIV-1 Reverse Transcriptase Assay Inhibitor IC50 Determination (RNA-dependent DNA polymerase activity, SPA)
Type: biochemical
Conditions: RNA-dependent DNA polymerase activity, SPA, 30 min at 30°; read-out: HIV-RT IC50
Group membership follows IC50 per the scheme one (below 8 nM), two (8 nM to below 20 nM), three (20 nM or more)

Before answering, review these 3 worked examples.
N#Cc1cc(C#N)cc(Oc2c(Br)ccc(OCC(=O)Nc3ccc(S(N)(=O)=O)cc3Cl)c2F)c1 [I-21] :: two
N#Cc1cc(Oc2c(Cl)ccc(OCC(=O)Nc3ccc(S(N)(=O)=O)cc3Cl)c2F)cc(C2CC2)c1 [I-26] :: three
Cc1cc(S(N)(=O)=O)ccc1NC(=O)COc1ccc(Cl)c(Oc2cc(Cl)cc(C#N)c2)c1F [I-2] :: two

Please classify: Cc1cc(S(N)(=O)=O)ccc1NC(=O)COc1ccc(Cl)c(Oc2cc(Cl)cc(C#N)c2)c1 [I-15]
one

Please classify: N#Cc1cc(Cl)cc(Oc2c(Cl)ccc(OCC(=O)Nc3ccc(C(=O)O)cc3Cl)c2F)c1 [I-27]
one

Please classify: N#Cc1cc(Cl)cc(Oc2c(C3CC3)ccc(OCC(=O)Nc3ccc(S(N)(=O)=O)cc3Cl)c2F)c1 [I-8]
two

* * *

This listing pairs compounds with measured melting point.

Cc1cc(S(N)(=O)=O)ccc1NC(=O)COc1ccc(Cl)c(Oc2cc(Cl)cc(C#N)c2)c1F :: 209.9 to 212 °C
N#Cc1cc(Cl)cc(Oc2c(C3CC3)ccc(OCC(=O)Nc3ccc(S(N)(=O)=O)cc3Cl)c2F)c1 :: 210 to 211 °C

# input compound: N#Cc1cc(C#N)cc(Oc2c(Br)ccc(OCC(=O)Nc3ccc(S(N)(=O)=O)cc3Cl)c2F)c1 ; wanted: its melting point
255 to 257 °C

* * *

Target: HIV-RT enzyme (HIV-1 reverse transcriptase) (Human immunodeficiency virus type 1 group M subtype B)
Construct: Reactions were initiated by the addition of 30 μl of the HIV-RT enzyme
Assay: HIV-1 Reverse Transcriptase Assay Inhibitor IC50 Determination (RNA-dependent DNA polymerase activity, SPA)
Format: biochemical
Details: RNA-dependent DNA polymerase activity, SPA, 30 min at 30°; read-out: HIV-RT IC50
measured-property: IC50 (nM)
# value in nM; strip the unit string

CCC(=O)NS(=O)(=O)c1ccc(NC(=O)COc2ccc(Br)c(Oc3cc(Cl)cc(C#N)c3)c2F)c(C)c1 [I-24] :: 5.7

# input compound: Cc1cc(C(N)=O)ccc1NC(=O)COc1ccc(Br)c(Oc2cc(Cl)cc(C#N)c2)c1F [I-28] ; wanted: its IC50
6.9

# input compound: N#Cc1cc(Br)cc(Oc2c(Cl)ccc(OCC(=O)Nc3ccc(S(N)(=O)=O)cc3Cl)c2F)c1 [I-19] ; wanted: its IC50
14.9

* * *

Where a name gives a salt, the structure may show the parent alone.
measured-property: melting point

The following compounds have reported results that may help.
COc1cc(C#N)cc(Oc2c(Br)ccc(OCC(=O)Nc3ccc(S(N)(=O)=O)cc3C)c2F)c1 [I-16] :: 220 to 223.3 °C
N#Cc1cc(Cl)cc(Oc2c(Br)ccc(OCC(=O)Nc3ccc(S(N)(=O)=O)cc3Cl)c2F)c1 [I-5] :: 250.9 to 252.3 °C
N#Cc1cc(Br)cc(Oc2c(Cl)ccc(OCC(=O)Nc3ccc(S(N)(=O)=O)cc3Cl)c2F)c1 [I-19] :: 242.2 to 244.9 °C
Cc1cc(S(N)(=O)=O)ccc1NC(=O)COc1ccc(Cl)c(Oc2cc(Br)cc(C#N)c2)c1F [I-18] :: 234.9 to 236.6 °C
COc1cc(C#N)cc(Oc2c(Cl)ccc(OCC(=O)Nc3ccc(S(N)(=O)=O)cc3Cl)c2F)c1 [I-12] :: 211 to 212 °C
CCc1ccc(OCC(=O)Nc2ccc(S(N)(=O)=O)cc2C)c(F)c1Oc1cc(Cl)cc(C#N)c1 [I-6] :: 188 to 189.6 °C
N#Cc1cc(Cl)cc(Oc2cc(OCC(=O)Nc3ccc(S(N)(=O)=O)cc3Cl)ccc2Cl)c1 [I-10] :: 217 to 219 °C
CCC(=O)NS(=O)(=O)c1ccc(NC(=O)COc2ccc(Br)c(Oc3cc(Cl)cc(C#N)c3)c2F)c(C)c1 (as salt: Na) [I-24] :: 268.1 to 270 °C
Cc1cc(C(N)=O)ccc1NC(=O)COc1ccc(Br)c(Oc2cc(Cl)cc(C#N)c2)c1F [I-28] :: 250.6 to 252.5 °C
CCC(=O)NS(=O)(=O)c1ccc(NC(=O)COc2ccc(Br)c(Oc3cc(Cl)cc(C#N)c3)c2F)c(Cl)c1 (as salt: Na) [I-23] :: 261 to 264 °C

# input compound: N#Cc1cc(Oc2c(Cl)ccc(OCC(=O)Nc3ccc(S(N)(=O)=O)cc3Cl)c2F)cc(C2CC2)c1 [I-26] ; wanted: its melting point
219 to 221 °C

# input compound: Cc1cc(S(N)(=O)=O)ccc1NC(=O)COc1ccc(Cl)c(Oc2cc(C#N)cc(C#N)c2)c1F [I-13] ; wanted: its melting point
264.5 to 265.2 °C

# input compound: Cc1cc(S(N)(=O)=O)ccc1NC(=O)COc1ccc(Br)c(Oc2cc(Cl)cc(C#N)c2)c1F [I-4] ; wanted: its melting point
226 to 228.8 °C

# input compound: COc1cc(C#N)cc(Oc2c(Br)ccc(OCC(=O)Nc3ccc(S(N)(=O)=O)cc3Cl)c2F)c1 [I-17] ; wanted: its melting point
213.9 to 217.9 °C

# input compound: N#Cc1cc(Cl)cc(Oc2c(Cl)ccc(OCC(=O)Nc3ccc(S(N)(=O)=O)cc3Cl)c2F)c1 [I-1] ; wanted: its melting point
233.3 to 247.6 °C

# input compound: COc1cc(C#N)cc(Oc2c(Cl)ccc(OCC(=O)Nc3ccc(S(N)(=O)=O)cc3C)c2F)c1 [I-11] ; wanted: its melting point
122 to 123.2 °C

* * *

Target: HIV-RT enzyme (HIV-1 reverse transcriptase) (Human immunodeficiency virus type 1 group M subtype B)
Construct: Reactions were initiated by the addition of 30 μl of the HIV-RT enzyme
Test: HIV-1 Reverse Transcriptase Assay Inhibitor IC50 Determination (RNA-dependent DNA polymerase activity, SPA)
Assay type: biochemical
measured-property: IC50 (nM)
# value in nM; strip the unit string

# input compound: CC(C)(O)C#Cc1ccc(NC(=O)COc2ccc(Br)c(Oc3cc(Cl)cc(C#N)c3)c2F)c(Cl)c1 ; wanted: its IC50
82.1

* * *

This listing pairs molecules with measured IC50.
Target: HIV-RT enzyme (HIV-1 reverse transcriptase) (Human immunodeficiency virus type 1 group M subtype B, UniProt P03366)
Construct: Reactions were initiated by the addition of 30 μl of the HIV-RT enzyme
Assay: HIV-1 Reverse Transcriptase Assay Inhibitor IC50 Determination (RNA-dependent DNA polymerase activity, SPA)
Type: biochemical
Settings: RNA-dependent DNA polymerase activity, SPA, 30 min at 30°; read-out: HIV-RT IC50
# value in nM; strip the unit string

N#Cc1cc(Cl)cc(Oc2cc(OCC(=O)Nc3ccc(S(N)(=O)=O)cc3Cl)ccc2Cl)c1 :: 7.4
COc1cc(C#N)cc(Oc2c(Br)ccc(OCC(=O)Nc3ccc(S(N)(=O)=O)cc3Cl)c2F)c1 :: 12.6
COc1cc(C#N)cc(Oc2c(Br)ccc(OCC(=O)Nc3ccc(S(N)(=O)=O)cc3C)c2F)c1 :: 5.1
CCc1cc(C#N)cc(Oc2c(Cl)ccc(OCC(=O)Nc3ccc(S(N)(=O)=O)cc3Cl)c2F)c1 :: 31.7
COc1cc(C#N)cc(Oc2c(Cl)ccc(OCC(=O)Nc3ccc(S(N)(=O)=O)cc3Cl)c2F)c1 :: 8.2

# input molecule: Cc1cc(S(N)(=O)=O)ccc1NC(=O)COc1ccc(Br)c(Oc2cc(Cl)cc(C#N)c2)c1F ; wanted: its IC50
6.5

# input molecule: CCc1ccc(OCC(=O)Nc2ccc(S(N)(=O)=O)cc2C)c(F)c1Oc1cc(Cl)cc(C#N)c1 ; wanted: its IC50
8.4

# input molecule: CC(C)(N)C#Cc1ccc(NC(=O)COc2ccc(Cl)c(Oc3cc(Cl)cc(C#N)c3)c2F)c(Cl)c1 ; wanted: its IC50
21.4

# input molecule: N#Cc1cc(Cl)cc(Oc2c(Br)ccc(OCC(=O)Nc3ccc(S(N)(=O)=O)cc3Cl)c2F)c1 ; wanted: its IC50
18.7

# input molecule: N#Cc1cc(Cl)cc(Oc2c(Cl)ccc(OCC(=O)Nc3ccc(S(N)(=O)=O)cc3Cl)c2F)c1 ; wanted: its IC50
16.2
